Data origin: paper PMC8397948

Target: OCT3 (Homo sapiens)
Construct: MVM and BM vesicles were used to evaluate the effects of antidepressants on SERT- and OCT3-mediated uptake of 5-HT, respectively
Sequence (O75751 whole entry): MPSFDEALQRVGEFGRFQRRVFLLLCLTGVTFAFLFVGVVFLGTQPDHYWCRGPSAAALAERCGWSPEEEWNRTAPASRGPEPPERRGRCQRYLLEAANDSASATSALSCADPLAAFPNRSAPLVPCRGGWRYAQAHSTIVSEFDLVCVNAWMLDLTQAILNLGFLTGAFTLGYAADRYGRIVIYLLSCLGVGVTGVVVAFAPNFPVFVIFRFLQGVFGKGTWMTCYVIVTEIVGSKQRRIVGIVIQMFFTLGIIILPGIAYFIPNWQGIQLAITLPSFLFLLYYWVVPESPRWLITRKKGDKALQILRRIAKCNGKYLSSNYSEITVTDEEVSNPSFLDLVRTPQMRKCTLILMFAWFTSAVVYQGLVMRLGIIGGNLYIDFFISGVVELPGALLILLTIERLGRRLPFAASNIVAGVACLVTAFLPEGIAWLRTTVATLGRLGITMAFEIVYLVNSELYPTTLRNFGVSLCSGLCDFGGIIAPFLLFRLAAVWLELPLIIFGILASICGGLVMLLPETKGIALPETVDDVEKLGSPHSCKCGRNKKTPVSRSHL
Experiment: [3H]5-HT uptake by basal membrane (BM) vesicles from human term placenta
Settings: 100 nM [3H]5-HT, 10 min preincubation, room temperature, n ≥ 4, read-out: IC50 BM (OCT3-mediated 5-HT uptake)
Structures can show the parent of a compound that is named as a salt.
value type: IC50 (nM)

{"molecule": "Fc1ccc([C@@H]2CCNC[C@H]2COc2ccc3c(c2)OCO3)cc1 [Paroxetine, paroxetine hydrochloride]", "value type": "IC50", "test value": 4.39}
{"molecule": "COCCCC/C(=N\\OCCN)c1ccc(C(F)(F)F)cc1 [Fluvoxamine, fluvoxamine maleate]", "value type": "IC50", "test value": 15.2}
